measured on: von Hippel-Lindau disease tumor suppressor/Histone-lysine N-methyltransferase EHMT2 (Homo sapiens, UniProt Q96KQ7+P40337)
Sequence (P40337 whole entry partner): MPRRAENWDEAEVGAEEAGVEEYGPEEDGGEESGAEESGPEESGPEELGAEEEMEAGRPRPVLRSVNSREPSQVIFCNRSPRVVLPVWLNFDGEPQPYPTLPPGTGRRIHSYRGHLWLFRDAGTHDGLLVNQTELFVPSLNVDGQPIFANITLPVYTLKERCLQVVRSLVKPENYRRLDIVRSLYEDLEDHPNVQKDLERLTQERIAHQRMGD
Sequence (Q96KQ7 2-1210 limits assumed): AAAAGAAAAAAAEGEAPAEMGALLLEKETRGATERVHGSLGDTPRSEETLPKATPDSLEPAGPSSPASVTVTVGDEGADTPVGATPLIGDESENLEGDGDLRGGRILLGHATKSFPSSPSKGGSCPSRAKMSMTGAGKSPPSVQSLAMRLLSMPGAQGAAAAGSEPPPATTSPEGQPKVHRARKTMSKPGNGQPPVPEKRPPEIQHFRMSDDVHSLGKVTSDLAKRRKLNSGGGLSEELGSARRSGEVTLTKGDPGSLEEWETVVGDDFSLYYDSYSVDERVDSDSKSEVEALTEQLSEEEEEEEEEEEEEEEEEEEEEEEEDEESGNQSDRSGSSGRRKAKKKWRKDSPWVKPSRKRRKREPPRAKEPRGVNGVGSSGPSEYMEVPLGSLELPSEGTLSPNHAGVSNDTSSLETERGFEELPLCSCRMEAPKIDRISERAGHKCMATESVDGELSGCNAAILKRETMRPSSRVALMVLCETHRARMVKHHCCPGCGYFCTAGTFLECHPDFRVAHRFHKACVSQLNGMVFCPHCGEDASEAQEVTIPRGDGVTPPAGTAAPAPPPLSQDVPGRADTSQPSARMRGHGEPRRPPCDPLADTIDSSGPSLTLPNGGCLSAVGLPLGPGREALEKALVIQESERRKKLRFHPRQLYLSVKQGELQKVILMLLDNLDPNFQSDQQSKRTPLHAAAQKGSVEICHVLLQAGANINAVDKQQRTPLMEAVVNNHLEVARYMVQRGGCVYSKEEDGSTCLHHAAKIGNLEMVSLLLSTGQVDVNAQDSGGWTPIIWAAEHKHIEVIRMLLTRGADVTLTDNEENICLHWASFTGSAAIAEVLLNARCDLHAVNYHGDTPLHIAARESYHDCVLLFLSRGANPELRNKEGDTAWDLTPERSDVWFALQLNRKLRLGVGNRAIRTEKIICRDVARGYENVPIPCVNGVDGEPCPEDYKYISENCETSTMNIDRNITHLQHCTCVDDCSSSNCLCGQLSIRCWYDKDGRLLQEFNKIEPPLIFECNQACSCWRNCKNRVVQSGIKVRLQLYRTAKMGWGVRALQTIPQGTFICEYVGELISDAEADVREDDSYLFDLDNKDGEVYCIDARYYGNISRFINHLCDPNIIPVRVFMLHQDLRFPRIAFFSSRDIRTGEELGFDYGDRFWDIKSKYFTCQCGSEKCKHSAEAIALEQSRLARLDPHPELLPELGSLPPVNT
procedure text: PROTAC activity at G9a/VHL in human 22Rv1 cells assessed as induction of G9a degradation at 3 uM incubated for 24 hrs by Western blot analysis relative to control
Assay type: cell-based

smiles entry	Emax
COc1cc2c(NN3CCN(CCCC(=O)NCCCCCCCCC(=O)N[C@H](C(=O)N4C[C@H](O)C[C@H]4C(=O)NCc4ccc(-c5scnc5C)cc4)C(C)(C)C)CC3)nc(N3CCC(F)(F)CC3)nc2cc1OCCCN1CCCC1	87%
COc1cc2c(NC3CCN(CCCC(=O)NCCOCCOCCC(=O)N[C@H](C(=O)N4C[C@H](O)C[C@H]4C(=O)NCc4ccc(-c5scnc5C)cc4)C(C)(C)C)CC3)nc(N3CCC(F)(F)CC3)nc2cc1OCCCN1CCCC1	< 13%
COc1cc2c(NC3CCN(CCCC(=O)NCCCCCCCCCCCC(=O)N[C@H](C(=O)N4C[C@H](O)C[C@H]4C(=O)NCc4ccc(-c5scnc5C)cc4)C(C)(C)C)CC3)nc(N3CCC(F)(F)CC3)nc2cc1OCCCN1CCCC1	> 99%
COc1cc2c(NC3CCN(CCCC(=O)NCCC(=O)N[C@H](C(=O)N4C[C@H](O)C[C@H]4C(=O)NCc4ccc(-c5scnc5C)cc4)C(C)(C)C)CC3)nc(N3CCC(F)(F)CC3)nc2cc1OCCCN1CCCC1	61%
COc1cc2c(NC3CCN(CCCC(=O)NCCCCCCCC(=O)N[C@H](C(=O)N4C[C@H](O)C[C@H]4C(=O)NCc4ccc(-c5scnc5C)cc4)C(C)(C)C)CC3)nc(N3CCC(F)(F)CC3)nc2cc1OCCCN1CCCC1	75%
COc1cc2c(NC3CCN(CCCC(=O)NCCCCCC(=O)N[C@H](C(=O)N4C[C@H](O)C[C@H]4C(=O)NCc4ccc(-c5scnc5C)cc4)C(C)(C)C)CC3)nc(N3CCC(F)(F)CC3)nc2cc1OCCCN1CCCC1	< 30%
COc1cc2c(NC3CCN(CCCC(=O)NCCCCC(=O)N[C@H](C(=O)N4C[C@H](O)C[C@H]4C(=O)NCc4ccc(-c5scnc5C)cc4)C(C)(C)C)CC3)nc(N3CCC(F)(F)CC3)nc2cc1OCCCN1CCCC1	< 11%
COc1cc2c(NC3CCN(CCCC(=O)NCCCCCCCCCC(=O)N[C@H](C(=O)N4C[C@H](O)C[C@H]4C(=O)NCc4ccc(-c5scnc5C)cc4)C(C)(C)C)CC3)nc(N3CCC(F)(F)CC3)nc2cc1OCCCN1CCCC1	< 92%
COc1cc2c(NC3CCN(CCCC(=O)NCCCCCCCCCCC(=O)N[C@H](C(=O)N4C[C@H](O)C[C@H]4C(=O)NCc4ccc(-c5scnc5C)cc4)C(C)(C)C)CC3)nc(N3CCC(F)(F)CC3)nc2cc1OCCCN1CCCC1	< 92%
COc1cc2c(NC3CCN(CCCC(=O)NCCCCCCC(=O)N[C@H](C(=O)N4C[C@H](O)C[C@H]4C(=O)NCc4ccc(-c5scnc5C)cc4)C(C)(C)C)CC3)nc(N3CCC(F)(F)CC3)nc2cc1OCCCN1CCCC1	< 30%

---

In this section, each of the compounds is paired with its reported Emax.
measured on: von Hippel-Lindau disease tumor suppressor/Histone-lysine N-methyltransferase EHMT1 (Homo sapiens, UniProt Q9H9B1+P40337)
Sequence (P40337 whole entry partner): as the sequence (P40337 whole entry partner) above
Sequence (Q9H9B1 2-1298 limits assumed): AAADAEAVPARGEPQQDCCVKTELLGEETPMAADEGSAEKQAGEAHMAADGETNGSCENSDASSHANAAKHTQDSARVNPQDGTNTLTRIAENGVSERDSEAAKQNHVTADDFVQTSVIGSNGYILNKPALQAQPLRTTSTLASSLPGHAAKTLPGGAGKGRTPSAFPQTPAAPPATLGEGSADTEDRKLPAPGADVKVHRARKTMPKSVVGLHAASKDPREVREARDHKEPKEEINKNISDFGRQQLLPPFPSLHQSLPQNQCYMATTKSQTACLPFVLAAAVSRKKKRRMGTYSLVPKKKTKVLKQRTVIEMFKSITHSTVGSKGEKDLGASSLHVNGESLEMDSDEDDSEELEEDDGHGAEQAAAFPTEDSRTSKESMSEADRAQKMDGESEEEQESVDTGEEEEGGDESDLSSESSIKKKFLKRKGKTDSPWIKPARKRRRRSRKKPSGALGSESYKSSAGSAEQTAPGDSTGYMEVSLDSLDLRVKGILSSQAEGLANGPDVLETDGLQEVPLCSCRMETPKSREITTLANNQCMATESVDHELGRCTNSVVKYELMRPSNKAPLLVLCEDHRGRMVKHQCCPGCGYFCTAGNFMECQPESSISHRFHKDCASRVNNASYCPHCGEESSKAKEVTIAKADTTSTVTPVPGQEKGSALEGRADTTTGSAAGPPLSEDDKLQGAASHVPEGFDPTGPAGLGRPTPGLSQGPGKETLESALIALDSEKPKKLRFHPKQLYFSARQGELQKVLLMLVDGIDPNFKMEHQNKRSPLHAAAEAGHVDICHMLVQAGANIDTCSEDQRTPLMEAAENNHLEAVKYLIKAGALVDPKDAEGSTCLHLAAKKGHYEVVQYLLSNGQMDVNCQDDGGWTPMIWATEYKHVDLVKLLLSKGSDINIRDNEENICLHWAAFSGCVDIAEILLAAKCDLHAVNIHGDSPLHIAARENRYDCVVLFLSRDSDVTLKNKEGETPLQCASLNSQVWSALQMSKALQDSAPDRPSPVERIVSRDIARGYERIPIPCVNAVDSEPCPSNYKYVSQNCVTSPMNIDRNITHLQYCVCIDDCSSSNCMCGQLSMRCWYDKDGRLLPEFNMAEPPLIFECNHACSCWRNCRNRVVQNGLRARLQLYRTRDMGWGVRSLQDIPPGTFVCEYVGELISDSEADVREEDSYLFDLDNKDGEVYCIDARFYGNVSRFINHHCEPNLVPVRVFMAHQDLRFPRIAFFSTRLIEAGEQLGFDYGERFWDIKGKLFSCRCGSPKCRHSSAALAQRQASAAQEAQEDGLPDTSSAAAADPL
procedure text: PROTAC activity at GLP/VHL in human 22Rv1 cells assessed as induction of GLP degradation at 3 uM incubated for 24 hrs by Western blot analysis relative to control
Format: cell-based

smiles entry	Emax
COc1cc2c(NC3CCN(CCCC(=O)NCCCCCCCCCCC(=O)N[C@H](C(=O)N4C[C@H](O)C[C@H]4C(=O)NCc4ccc(-c5scnc5C)cc4)C(C)(C)C)CC3)nc(N3CCC(F)(F)CC3)nc2cc1OCCCN1CCCC1	< 94%
COc1cc2c(NN3CCN(CCCC(=O)NCCCCCCCCC(=O)N[C@H](C(=O)N4C[C@H](O)C[C@H]4C(=O)NCc4ccc(-c5scnc5C)cc4)C(C)(C)C)CC3)nc(N3CCC(F)(F)CC3)nc2cc1OCCCN1CCCC1	86%
COc1cc2c(NC3CCN(CCCC(=O)NCCOCCOCCOCCC(=O)N[C@H](C(=O)N4C[C@H](O)C[C@H]4C(=O)NCc4ccc(-c5scnc5C)cc4)C(C)(C)C)CC3)nc(N3CCC(F)(F)CC3)nc2cc1OCCCN1CCCC1	< 27%
COc1cc2c(NC3CCN(CCCC(=O)NCCCC(=O)N[C@H](C(=O)N4C[C@H](O)C[C@H]4C(=O)NCc4ccc(-c5scnc5C)cc4)C(C)(C)C)CC3)nc(N3CCC(F)(F)CC3)nc2cc1OCCCN1CCCC1	21%
COc1cc2c(NC3CCN(CCCC(=O)NCCCCCCC(=O)N[C@H](C(=O)N4C[C@H](O)C[C@H]4C(=O)NCc4ccc(-c5scnc5C)cc4)C(C)(C)C)CC3)nc(N3CCC(F)(F)CC3)nc2cc1OCCCN1CCCC1	< 20%
COc1cc2c(NC3CCN(CCCC(=O)NCCCCCCCCCC(=O)N[C@H](C(=O)N4C[C@H](O)C[C@H]4C(=O)NCc4ccc(-c5scnc5C)cc4)C(C)(C)C)CC3)nc(N3CCC(F)(F)CC3)nc2cc1OCCCN1CCCC1	< 96%
COc1cc2c(NC3CCN(CCCC(=O)NCCC(=O)N[C@H](C(=O)N4C[C@H](O)C[C@H]4C(=O)NCc4ccc(-c5scnc5C)cc4)C(C)(C)C)CC3)nc(N3CCC(F)(F)CC3)nc2cc1OCCCN1CCCC1	70%
COc1cc2c(NC3CCN(CCCC(=O)NCCCCC(=O)N[C@H](C(=O)N4C[C@H](O)C[C@H]4C(=O)NCc4ccc(-c5scnc5C)cc4)C(C)(C)C)CC3)nc(N3CCC(F)(F)CC3)nc2cc1OCCCN1CCCC1	< 11%

// data source = ChEMBL document CHEMBL5543145
